# System: Mycobacterium tuberculosis
# assayProcedure: Antitubercular activity against Mycobacterium tuberculosis H37Rv by BacTiter-Gl Microbial Cell Viability assay
# Assay type: functional, organism-based
propertyLabel: log10 of EC50 (log10 of the value in µM)
Response schema: value (number) is log10 of EC50 in units of µM.

Previously resolved entries follow.
# chemicalStructure, log10 of EC50
measured = [
    ("NNC(=O)c1ccncc1", -0.89),
    ("CN(C)c1ccc([C@H]2CN(C)[C@@]3(C(=O)c4cccc5cccc3c45)[C@@]23Cc2ccccc2C3=O)cc1", 0.99),
    ("CC[C@@H](CO)NCCN[C@@H](CC)CO", 0.18),
    ("CN1C[C@H](c2ccc(N3CCOCC3)cc2)[C@]2(Cc3ccccc3C2=O)[C@]12C(=O)c1cccc3cccc2c13", 1.28),
    ("CCc1nc(N)nc(N)c1-c1ccc(Cl)cc1", 1.39),
    ("COc1ccc([C@H]2CN(C)[C@@]3(C(=O)c4cccc5cccc3c45)[C@@]23Cc2ccccc2C3=O)cc1", 1.13),
    ("CN1C[C@H](c2ccc(OC(F)(F)F)cc2)[C@]2(Cc3ccccc3C2=O)[C@]12C(=O)c1cccc3cccc2c13", 0.93),
    ("CN1C[C@H](c2ccc(C(=O)O)cc2)[C@]2(Cc3ccccc3C2=O)[C@]12C(=O)c1cccc3cccc2c13", 1.32),
]

Quote Mycobacterium tuberculosis log10 of EC50 for entry `CN1C[C@H](c2cncc(-c3ccc(F)cc3)c2)[C@]2(Cc3ccccc3C2=O)[C@]12C(=O)c1cccc3cccc2c13` . 1.81

* * *

# Tested on: Mycobacterium tuberculosis
# assayProcedure: Antitubercular activity against Mycobacterium tuberculosis H37Rv by BacTiter-Gl Microbial Cell Viability assay
# Format: functional, organism-based
propertyLabel: log10 MIC (log10 of the value in µM)
For clarity, the numbers are log10 values of MIC expressed in µM.

Some solved cases for reference:
# chemicalStructure, log10 MIC
data = [
    ("N[C@@H]1CONC1=O", 2.00),
    ("CN1C[C@H](c2ccc(Cl)cc2)[C@]2(Cc3ccccc3C2=O)[C@]12C(=O)c1cccc3cccc2c13", 1.70),
    ("COc1ccc([C@H]2CN(C)[C@@]3(C(=O)c4cccc5cccc3c45)[C@@]23Cc2ccccc2C3=O)cc1", 2.00),
    ("CO[C@H]1/C=C/O[C@@]2(C)Oc3c(C)c(O)c4c(O)c(c(/C=N/N5CCN(C)CC5)c(O)c4c3C2=O)NC(=O)/C(C)=C\\C=C\\[C@H](C)[C@H](O)[C@@H](C)[C@@H](O)[C@@H](C)[C@H](OC(C)=O)[C@@H]1C", -1.40),
    ("CN(C)c1ccc([C@H]2CN(C)[C@@]3(C(=O)c4cccc5cccc3c45)[C@@]23Cc2ccccc2C3=O)cc1", 2.00),
]

Give the reported log10 MIC for this molecule. `CC[C@@H](CO)NCCN[C@@H](CC)CO` 0.80

Indicate its recorded log10 MIC; the molecule in question is `CN1C[C@H](c2cccc3c2OCO3)[C@]2(Cc3ccccc3C2=O)[C@]12C(=O)c1cccc3cccc2c13` 2.00

Look up log10 MIC of `CN1C[C@H](c2ccc(C(=O)O)cc2)[C@]2(Cc3ccccc3C2=O)[C@]12C(=O)c1cccc3cccc2c13` and report it. 2.00

Report measured log10 MIC; entry is `CCc1nc(N)nc(N)c1-c1ccc(Cl)cc1` 2.00

Provide measured log10 MIC value, entry: `NNC(=O)c1ccncc1` -0.51
